Test: Ratio of AUC (0 to last) in dog liver to AUC (0 to last) in dog plasma
Format: ADME, Canis lupus familiaris
recordedMetric: Kp
Output spec: single numeric token, no unit.

Input line: Given "CC(C)O[P@@]1(=O)OC[C@H]2O[C@@H](n3ccc(=O)[nH]c3=O)[C@@]3(CCO3)[C@@H]2O1" , state its recorded Kp.
Output line: 1.4

###

Test: Cmax in mouse plasma at 50 mg/kg, po
Format: ADME, organism-based
Design: dose 50 mg/kg, route oral
recordedMetric: Cmax
Could you write the number and then its unit?

Input line: Given "CC(C)O[P@@]1(=O)OC[C@H]2O[C@@H](n3ccc(=O)[nH]c3=O)[C@@]3(CCO3)[C@@H]2O1" , state its recorded Cmax.
Output line: 851 ng/mL

###

Experiment: Tmax in dog plasma at 50 mg/kg, po
Type: ADME, organism-based, Canis lupus familiaris
recordedMetric: Tmax (h)
Write the number in h without appending the unit.

Input line: Given "CC(C)O[P@@]1(=O)OC[C@H]2O[C@@H](n3ccc(=O)[nH]c3=O)[C@@]3(CCO3)[C@@H]2O1" , state its recorded Tmax.
Output line: 1.5

###

Assay: Tmax in rat liver at 50 mg/kg, po
Type: ADME, organism-based
recordedMetric: Tmax
Could you write the number and then its unit?

Input line: Given "CC(C)O[P@@]1(=O)OC[C@H]2O[C@@H](n3ccc(=O)[nH]c3=O)[C@@]3(CCO3)[C@@H]2O1" , state its recorded Tmax.
Output line: 1 h

Values compiled from ChEMBL document CHEMBL3826882.
